These entries and their values trace back to patent US20200131669A1.

- Experimental Details: Caco-2 membrane permeability, improved method as used in the following Examples (96-well, 20 to 24 h preincubation)
- Type: in vitro ADME
- Particulars: human, Caco-2; Papp; Table 24, sequences where ARC = 4; read-out: Caco-2
Positions of bridges follow the written chain, without caps; N, C: chain ends. Non-standard residues stand in square brackets, D forms with d. Residues, ends and D or L forms follow the SMILES beside them. *: point of attachment. NMeAla(4-thiazolyl) = CN[C@@H](Cc1cscn1)C(=O)O; NMeF = CN[C@@H](Cc1ccccc1)C(=O)O; NMeL = CN[C@@H](CC(C)C)C(=O)O; NMeA = CN[C@@H](C)C(=O)O; Piperidide = C1CCN(*)CC1; Sar = CNCC(=O)O
Property Name: Papp A→B at 180 min (×10⁻⁶ cm/s)
Write the number in ×10⁻⁶ cm/s without appending the unit.

Which Papp A→B at 180 min is reported for this molecule? CC(C)C[C@@H]1NC(=O)[C@H](C)N(C)C(=O)C[C@@H](C(=O)N2CCCCC2)NC(=O)[C@H](CC(C)C)N(C)C(=O)CN(C)C(=O)[C@H]([C@@H](C)O)NC(=O)[C@H](Cc2cscn2)N(C)C(=O)[C@H](Cc2ccccc2)N(C)C(=O)[C@H](Cc2ccccc2)NC(=O)[C@H](Cc2ccccc2)NC(=O)[C@H](CC(C)C)N(C)C1=O [pd236] ([NMeA]L[NMeL]FF[NMeF][NMeAla(4-thiazolyl)]T[Sar][NMeL]D-Piperidide; lactam N-11)
0.096

====

- Experimental Details: Caco-2 membrane permeability, improved method as used in the following Examples (96-well, 20 to 24 h preincubation)
- Format: in vitro ADME
- Particulars: human, Caco-2, Caco-2
Starred links: 1 amine or outer side, 2 acyl side, 3 side chain; linkers in the order of their positions; H or OH if unused. Positions of bridges follow the written chain, without caps; N, C: chain ends. Non-standard residues stand in square brackets, D forms with d. Residues, ends and D or L forms follow the SMILES beside them. *: point of attachment. X9 = O=C(CN(CCOc1ccccc1)[*:1])[*:2]; NMeF = CN[C@@H](Cc1ccccc1)C(=O)O; CH2CONHtBu = CC(C)(C)NC(=O)C*; NMeL = CN[C@@H](CC(C)C)C(=O)O; NMeAbu = CC[C@H](NC)C(=O)O; NMeA = CN[C@@H](C)C(=O)O; Piperidide = C1CCN(*)CC1; NBuGly = CCCCNCC(=O)O; NPrGly = CCCNCC(=O)O; tBu = CC(C)(C)*
Property Name: Papp A→B at 180 min (×10⁻⁶ cm/s)
Write the number in ×10⁻⁶ cm/s without appending the unit.

Molecule: CCCCN1CC(=O)N(C)[C@@H](Cc2ccccc2)C(=O)N[C@@H]([C@@H](C)CC)C(=O)N(C)[C@@H](CC(C)C)C(=O)N[C@@H]([C@@H](C)O)C(=O)N(CCC)CC(=O)N(C)[C@@H](Cc2ccccc2)C(=O)N(C)[C@@H](CC(C)C)C(=O)N[C@@H](COCC(=O)NC(C)(C)C)C(=O)N(C)[C@@H](C)C(=O)N[C@H](C(=O)N2CCCCC2)CC1=O [pd443] ([NBuGly][NMeF]I[NMeL]T[NPrGly][NMeF][NMeL]S(CH2CONHtBu)[NMeA]D-Piperidide; lactam N-11)
Papp A→B at 180 min, ×10⁻⁶ cm/s: 1

Attention now turns to another entry.
Which Papp A→B at 180 min is reported for this molecule? CC[C@H](C)[C@@H]1NC(=O)[C@H](CC(C)C)N(C)C(=O)[C@@H](C)NC(=O)C[C@@H](C(=O)N2CCCCC2)NC(=O)[C@H](CC)N(C)C(=O)[C@H](Cc2ccccc2)N(C)C(=O)[C@H](COC(C)(C)C)NC(=O)[C@H](CC(C)C)N(C)C(=O)[C@H](CC)N(C)C(=O)[C@H]([C@@H](C)O)NC(=O)CN(CCOc2ccccc2)C1=O [pd423] ([dA][NMeL]I[X9]T[NMeAbu][NMeL]S(tBu)[NMeF][NMeAbu]D-Piperidide; lactam N-11)
1
